Each record here notes measured composite z-score.
# Tested on: Inhibin beta A chain (activin A)
# Method Notes: INHBA (activin A) binders on microarrays, primary screen, biochemical, small-molecule microarray, 635 nm fluorescence scan (AID 1107);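 note: mouse activin A protein probed at 4.33 µg/mL on printed slides; score merges bound-protein fluorescence near 667 nm with spot signal-to-noise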
# Test Parameters: small-molecule microarray binding, higher = more signal
Metric: composite z-score

compound="O=C1C2C=CC(C(O)Cc3ccccc3)N(n3cnnc3)C2C(=O)N1Cc1ccccc1 (centres undefined)" test_result=0.825
compound=COC(=O)[C@H](Cc1ccccc1)N1CC2=C[C@@H](C3CC3)n3c(=O)n(C)c(=O)n3[C@H]2[C@@H]1[C@@H](O)Cc1ccccc1 test_result=0.289
compound=Cc1ccc(S[C@]2(C(=O)NC3CC3)CC(=O)N(Cc3ccccc3)[C@@H]2c2ccc(CO)cc2I)cc1 test_result=0.5
compound=Oc1ccc2cc[n+](Cc3sc4ccccc4c3Cl)cc2c1 test_result=1.28
compound=CCOC(=O)C[C@H]1[C@H](OC(=O)c2ccc(-c3ccccc3)cc2)[C@@H](NC(=O)Cc2ccc(OC)cc2)c2cc(OCCCO)ccc2N1C(=O)c1ccccc1 test_result=0.407
compound="COc1cc(C(O)C2C=CC3C(=O)NC(=O)C3N2Nc2ccccn2)cc(OC)c1OC (centres undefined)" test_result=0.791
compound=CCOC(=O)C[C@H]1[C@H](OC(=O)c2cc3ccccc3oc2=O)[C@@H](NC(=O)c2ccccc2)c2cc(OCCCO)ccc2N1C(=O)c1ccc2ccccc2n1 test_result=0.344
compound="CCC(CC)C(O)C1C=CC2C(=O)NC(=O)C2N1Nc1ccccn1 (centres undefined)" test_result=1.29
compound=Cc1ccc(S[C@]2(C(=O)O)CC(=O)N(C(C)C)[C@@H]2c2ccc(CO)cc2I)cc1 test_result=1.33
